# credit: the supplement of paper PMC10567573

The variants listed here are annotated with their protein stability index.
B1: TRIM63 (parent)
chain: FRCPTCRHEVIMDRHGVYGLQRNL

variants of: B1; experiment: protein stability index of a GFP-peptide fusion (GPS, HEK-293T) (PSI 1-6); higher = more stable; conditions: c terminus: a fixed tail appended;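 further: lentivirally expressed fusions sorted by FACS into six bins by GFP to DsRed ratio, PSI derived from sequencing read proportions per bin multiplied by bin number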
Please reply with the value in numeric form only.

mutationlabel=I11T numericreadout=2.48

Could you share which protein stability index value was measured for `R7Y` ?
1.94

Could you share which protein stability index value was measured for `M12Q` ?
2.29

Could you share which protein stability index value was measured for `L20D` ?
2.42
